# maps each entry to its OD450
Target: T1, naked peptide YVNFNFTDFY (human)
T1 peptide: YVNFNFTDFY
Assay: ELISA naked peptide; scFv 1 ug/mL; repI

{"binder": "CCR9_HUM2 scFv (humanized anti-CCR9 scFv, SEQ ID NO: 17 with C-terminal 6xHis tag) (scFv) scFv: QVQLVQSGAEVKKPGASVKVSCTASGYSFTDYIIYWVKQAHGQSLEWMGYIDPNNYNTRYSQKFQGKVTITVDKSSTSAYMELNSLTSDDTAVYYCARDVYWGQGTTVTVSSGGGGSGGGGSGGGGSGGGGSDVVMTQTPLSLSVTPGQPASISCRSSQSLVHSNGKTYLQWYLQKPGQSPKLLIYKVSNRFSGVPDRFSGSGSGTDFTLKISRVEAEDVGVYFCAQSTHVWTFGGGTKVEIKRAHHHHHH", "valueUnit": "OD", "OD450": 0.03}
{"binder": "Comparative antibody 1 (Comp-1) scFv, SEQ ID NO: 10 from WO2023/037125 A1, His-tagged (scFv) scFv: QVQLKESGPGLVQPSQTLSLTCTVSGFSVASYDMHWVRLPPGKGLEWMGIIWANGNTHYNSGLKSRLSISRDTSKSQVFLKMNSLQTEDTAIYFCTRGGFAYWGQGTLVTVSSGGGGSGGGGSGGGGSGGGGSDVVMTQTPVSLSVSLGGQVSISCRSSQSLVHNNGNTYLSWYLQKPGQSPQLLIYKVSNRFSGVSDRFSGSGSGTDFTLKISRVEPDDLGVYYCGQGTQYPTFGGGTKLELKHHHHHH", "valueUnit": "OD", "OD450": 0.05}
{"binder": "Comparative antibody 3 (Comp-3) scFv, SR_92R (Somovilla-Crespo et al. 2018), His-tagged (scFv) scFv: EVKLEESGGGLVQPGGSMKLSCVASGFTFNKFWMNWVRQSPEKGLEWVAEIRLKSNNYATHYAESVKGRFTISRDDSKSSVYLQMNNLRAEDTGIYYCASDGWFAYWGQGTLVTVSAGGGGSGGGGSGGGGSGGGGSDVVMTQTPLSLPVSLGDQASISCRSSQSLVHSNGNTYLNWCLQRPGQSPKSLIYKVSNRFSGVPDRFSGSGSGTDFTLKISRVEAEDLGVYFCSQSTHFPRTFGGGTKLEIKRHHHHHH", "valueUnit": "OD", "OD450": 0.03}
{"binder": "Comparative antibody 2 (Comp-2) scFv, 243LO326 (VH SEQ ID NO: 51 and VL SEQ ID NO: 52 of WO 2022/195028 A2), His-tagged (scFv) scFv: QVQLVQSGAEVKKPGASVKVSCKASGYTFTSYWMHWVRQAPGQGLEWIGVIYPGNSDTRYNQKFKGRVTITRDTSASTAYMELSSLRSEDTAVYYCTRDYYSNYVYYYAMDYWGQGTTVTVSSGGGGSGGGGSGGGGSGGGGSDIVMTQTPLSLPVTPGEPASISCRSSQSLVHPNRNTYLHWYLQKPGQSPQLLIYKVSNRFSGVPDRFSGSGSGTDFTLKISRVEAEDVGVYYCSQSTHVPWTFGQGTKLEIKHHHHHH", "valueUnit": "OD", "OD450": 0.02}

Where do the numbers come from? From patent US20260232732A1.
